system_under_test: adenosine A1 receptor (Homo sapiens, UniProt P30542)
Construct: expressed in transfected cells; host or cells: CHO (Chinese Hamster Ovary)
Sequence (P30542 1-326): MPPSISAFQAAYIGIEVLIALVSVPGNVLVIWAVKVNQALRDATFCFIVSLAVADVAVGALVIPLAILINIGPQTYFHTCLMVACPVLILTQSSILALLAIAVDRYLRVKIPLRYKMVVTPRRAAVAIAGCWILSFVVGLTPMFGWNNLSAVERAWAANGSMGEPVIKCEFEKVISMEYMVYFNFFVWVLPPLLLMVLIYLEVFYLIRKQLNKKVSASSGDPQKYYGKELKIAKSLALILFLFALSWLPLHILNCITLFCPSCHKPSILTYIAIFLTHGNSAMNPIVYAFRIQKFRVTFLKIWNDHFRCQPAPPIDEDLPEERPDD
test_details: Indirect determination of adenosine agonism by way of gene expression (luciferase, CHO cells), A1
Assay type: cell-based
measurement_context: CHO cells stably transfected with A1 receptor cDNA; 1 μM forskolin; 50% inhibition of luciferase answer
measurement_label: EC50 (nM)

N#Cc1c(N)nc(SCc2coc(-c3ccc(F)cc3)n2)c(C#N)c1-c1ccc(OC[C@H](O)CO)cc1	0.4
Cc1oc(-c2ccccc2F)nc1CSc1nc(N)c(C#N)c(-c2ccc(OC[C@@H](O)CO)cc2)c1C#N	0.7
N#Cc1c(N)nc(OCc2coc(-c3ccc(Cl)cc3)n2)c(C#N)c1-c1ccc(OCCO)cc1	0.3
N#Cc1c(N)nc(SCc2coc(-c3ccc(F)c(Cl)c3)n2)c(C#N)c1-c1ccc(OCCO)cc1	0.5
N#Cc1c(N)nc(SCc2coc(-c3ccc(Cl)cc3)n2)c(C#N)c1-c1ccc(OC[C@H](O)CO)cc1	0.4
COc1ccc(-c2nc(CSc3nc(N)c(C#N)c(-c4ccc(OC[C@H](O)CO)cc4)c3C#N)c(C)o2)cc1	0.9
N#Cc1c(SCc2coc(-c3ccc(Cl)cc3)n2)nc(N2CC[C@@H](O)C2)c(C#N)c1-c1ccc(OCCO)cc1	0.4
